The reported measurements were obtained from patent US11230541B2.

- system: NMDA receptor composed of four subunits including 2 sets of heterodimers of NR1 and NR2B (Homo sapiens)
- Construct: host or cells: HEK293 (tetracycline-induced expression)
- Sequence (Q13224 27-1484, other chains not shown): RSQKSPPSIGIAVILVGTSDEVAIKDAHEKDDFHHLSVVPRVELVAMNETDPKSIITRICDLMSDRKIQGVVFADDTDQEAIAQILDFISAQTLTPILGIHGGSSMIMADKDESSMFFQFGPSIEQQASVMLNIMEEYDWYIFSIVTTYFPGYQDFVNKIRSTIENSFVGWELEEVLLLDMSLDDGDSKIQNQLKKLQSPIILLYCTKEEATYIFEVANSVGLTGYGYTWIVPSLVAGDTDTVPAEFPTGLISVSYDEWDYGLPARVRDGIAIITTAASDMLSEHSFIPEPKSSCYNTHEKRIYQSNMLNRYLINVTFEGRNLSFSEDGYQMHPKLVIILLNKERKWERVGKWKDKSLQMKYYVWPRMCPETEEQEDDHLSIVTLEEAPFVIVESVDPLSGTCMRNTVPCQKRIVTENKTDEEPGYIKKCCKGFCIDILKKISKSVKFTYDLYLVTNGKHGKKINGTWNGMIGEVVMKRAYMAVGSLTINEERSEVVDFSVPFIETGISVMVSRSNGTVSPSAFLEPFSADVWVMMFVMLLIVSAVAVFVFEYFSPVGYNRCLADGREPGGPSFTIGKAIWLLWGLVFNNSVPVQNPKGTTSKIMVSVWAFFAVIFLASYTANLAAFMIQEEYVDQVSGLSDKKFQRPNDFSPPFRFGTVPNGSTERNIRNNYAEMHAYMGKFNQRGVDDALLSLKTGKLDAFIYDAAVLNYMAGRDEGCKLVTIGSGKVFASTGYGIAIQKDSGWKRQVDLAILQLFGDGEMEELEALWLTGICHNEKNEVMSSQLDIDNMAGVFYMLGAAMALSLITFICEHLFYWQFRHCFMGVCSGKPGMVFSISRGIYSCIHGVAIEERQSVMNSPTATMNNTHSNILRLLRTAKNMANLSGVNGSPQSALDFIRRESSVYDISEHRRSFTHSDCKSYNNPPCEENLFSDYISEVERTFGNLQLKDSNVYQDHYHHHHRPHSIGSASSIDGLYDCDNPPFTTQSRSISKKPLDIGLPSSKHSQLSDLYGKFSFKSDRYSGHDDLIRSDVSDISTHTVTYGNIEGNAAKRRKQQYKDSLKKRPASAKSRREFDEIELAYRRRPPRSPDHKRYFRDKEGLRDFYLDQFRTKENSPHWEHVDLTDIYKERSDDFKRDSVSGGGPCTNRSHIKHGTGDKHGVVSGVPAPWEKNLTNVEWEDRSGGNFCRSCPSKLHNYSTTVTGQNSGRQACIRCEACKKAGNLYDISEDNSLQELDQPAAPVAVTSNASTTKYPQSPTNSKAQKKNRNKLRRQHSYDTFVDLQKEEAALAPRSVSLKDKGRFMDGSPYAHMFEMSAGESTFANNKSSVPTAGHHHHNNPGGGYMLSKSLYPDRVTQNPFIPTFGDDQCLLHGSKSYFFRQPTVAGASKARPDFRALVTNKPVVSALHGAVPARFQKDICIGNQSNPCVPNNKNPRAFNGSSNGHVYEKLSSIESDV
- assayRemarks: NR2B Ca2+ influx assay (FLIPR, Fluo-4) in HEK293 cells expressing human GRIN1 and GRIN2B
- Type: cell-based
- reportedConditions: HEK293, 10 μM final compound concentration, glutamic acid/glycine-induced Ca2+ influx, read-out: inhibitory rate (10 μM compound concentration)
measuredMetric: inhibition at 10 µM (%)

Worked set:
CCc1ccc2ncn(C)c2c1CNC(=O)c1ccc(OC(F)F)nc1 92
Cc1ccc2ncn(C)c2c1CNC(=O)c1cc(F)c(OC(F)F)c(F)c1 89
Cc1c(F)cc(C(=O)NCc2c(C3CC3)ccc3[nH]ncc23)cc1F 94
CCOc1ccc2ncn(C)c2c1CNC(=O)c1ccc(C(F)F)c(F)c1 90
COc1ccc2ncn(C)c2c1CNC(=O)c1cc(C)c(OC)c(C)c1 77

(1) O=C(NCc1c(C2CC2)ccc2[nH]ncc12)c1ccc(F)c(Cl)c1
(2) COc1cc(C(=O)NCc2c(OC)ccc3ncn(C)c23)ccc1Cl
1 or 2 : whose inhibition at 10 µM is greater? Write down the label of the entry you select.
1
